Biological target: T1, human ACVR2A (human, UniProt P27037 20-135, limits assumed); note: test concentration or dose not given here
T1 construct: also called activin receptor, type II A
T1 sequence (P27037 20-135 limits assumed): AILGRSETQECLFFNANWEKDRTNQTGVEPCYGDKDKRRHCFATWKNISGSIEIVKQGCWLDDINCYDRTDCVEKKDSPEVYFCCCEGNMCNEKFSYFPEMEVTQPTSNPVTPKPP
Test: ELISA
Experimental: The binding of ACVR2A-specific monoclonal antibodies to human ACVR2A, mouse ACVR2A, biotinylated goat anti-human kappa light chain (positive control) and human Fc (negative control) were determined by ELISA.
// reported optical density per item
Could you kindly put the unit after your number?

binder: 367_B11 (antibody, V domains shown, Group I) VH: EVQLLESGGGLVQPGGSLRLSCAASGFTFSDYSMHWVRQAPGKGLEWVANINYNSGYTSYADSVKGRFTISRDNSKNTLYLQMNSLRAEDTAVYYCARAANWHDTALDYWGQGTLVTVSS VL: DIQMTQSPSSLSASVGDRVTITCRASQSILSYLNWYQQKPGKAPKLVIYAATSRASGVPSRFSGSGSGTDFTLTISSLQPEDFATYYCQQSYSTPLTFGGGTKVEIK
optical density: 2.34 OD
//
binder: 366_D03 (antibody, V domains shown, Group I) VH: EVQLLESGGGLVQPGGSLRLSCAASGFTFDSYGMHWVRQAPGKGLEWVSSINYNGGYTGYADSVKGRFTISRDNSKNTLYLQMNSLRAEDTAVYYCARAANWHDTHLDYWGQGTLVTVSS VL: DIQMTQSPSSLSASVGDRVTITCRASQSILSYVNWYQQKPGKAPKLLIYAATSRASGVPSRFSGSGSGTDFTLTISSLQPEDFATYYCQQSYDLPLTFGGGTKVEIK
optical density: 2.23 OD
//
binder: 368_A12 (antibody, V domains shown, Group I) VH: EVQLLESGGGLVQPGGSLRLSCAASGFTFDSYSMHWVRQAPGKGLEWVSSINYNSGYKGYADSVKGRFTISRDNSKNTLYLQMNSLRAEDTAVYYCARAANWHDTALDYWGQGTLVTVSS VL: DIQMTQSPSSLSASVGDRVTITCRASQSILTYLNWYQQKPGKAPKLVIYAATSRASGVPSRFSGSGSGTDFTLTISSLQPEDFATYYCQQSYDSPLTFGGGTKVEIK
optical density: 3.01 OD
//
binder: 367_E08 (antibody, V domains shown, Group II) VH: EVQLLESGGGLVQPGGSLRLSCAASGFTFSDYGMNWVRQAPGKGLEWVASINYNGGYTSYADSVKGRFTISRDNSKNTLYLQMNSLRAEDTAVYYCARAATWHDTHLDYWGQGTLVTVSS VL: DIQMTQSPSSLSASVGDRVTITCRASQSILSYLNWYQQKPGKAPKLLIYATTSRASGVPSRFSGSGSGTDFTLTISSLQPEDFATYYCQQSYDNPLTFGGGTKVEIK
optical density: 2.04 OD

Field: next binder
Query: Reported optical density, binder 367_C12 (antibody, V domains shown, Group II) VH: EVQLLESGGGLVQPGGSLRLSCAASGFTFSSYGMHWVRQAPGKGLEWVSGINYNGGYTSYADSVKGRFTISRDNSKNTLYLQMNSLRAEDTAVYYCARAATWHDTHLDYWGQGTLVTVSS VL: DIQMTQSPSSLSASVGDRVTITCRASQSILSYVNWYQQKPGKAPKLLIYATTSRHSGVPSRFSGSGSGTDFTLTISSLQPEDFATYYCQQSYESPLTFGGGTKVEIK : ____
Response: 2.06 OD
